Target: T1, human BMP7 (human, UniProt P18075 293-431)
T1 sequence: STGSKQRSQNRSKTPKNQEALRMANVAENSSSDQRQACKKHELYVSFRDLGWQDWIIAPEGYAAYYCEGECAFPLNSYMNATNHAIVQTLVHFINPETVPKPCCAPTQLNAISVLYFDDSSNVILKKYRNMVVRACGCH
Assay: cell-based or functional assay
# maps each entry to its RGA IC50

| binder | reported-relation | RGA IC50, µg/mL |
| --- | --- | --- |
| Antibody 3 (antibody, human IgG1, lambda, V domains shown, germlined clone of NOV0800 (HCDR2-matured NOV0442_VL[Y49,G50,N51S]); human IgG1; back-up antibody; also called NOV0961; NOV961) VH: QVQLVESGGGLVKPGGSLRLSCAASGFTFSSYVVHWVRQAPGKGLEWVGRIKDHKQGYTTAYAASVKGRFTISRDDSKNTLYLQMNSLKTEDTAVYYCARVERSKSGFDNWGQGTLVTVSS VL: QSVLTQPPSVSGAPGQRVTISCTGSSSNIGAGYSVHWYQQLPGTAPKLLIYGSSERPSGVPDRFSGSKSGTSASLAITGLQAEDEADYYCQSWDSSQTLVVFGGGTKLTVLG | > | 25 |
| Antibody 5 (antibody, human IgG1, lambda, V domains shown, germlined clone of NOV0787 (HCDR2-matured NOV0442_VL[Y49,G50,N51Q]); human IgG1; lead antibody; also called NOV0951; NOV951) VH: QVQLVESGGGLVKPGGSLRLSCAASGFTFSSYVVHWVRQAPGKGLEWVGRIKRESSSYTTMYAAPVKGRFTISRDDSKNTLYLQMNSLKTEDTAVYYCARVERSKSGFDNWGQGTLVTVSS VL: QSVLTQPPSVSGAPGQRVTISCTGSSSNIGAGYSVHWYQQLPGTAPKLLIYGQSERPSGVPDRFSGSKSGTSASLAITGLQAEDEADYYCQSWDSSQTLVVFGGGTKLTVLG | = | 25 |
| Antibody 7 (antibody, human IgG1, lambda, V domains shown, germlined clone of NOV0806 (HCDR2-matured NOV0442_VL[Y49,G50,N51Q]); human IgG1; final lead; also called NOV0958; NOV958) VH: QVQLVESGGGLVKPGGSLRLSCAASGFTFSSYVVHWVRQAPGKGLEWVGRIRLETHGYAAEYAASVKGRFTISRDDSKNTLYLQMNSLKTEDTAVYYCARVERSKSGFDNWGQGTLVTVSS VL: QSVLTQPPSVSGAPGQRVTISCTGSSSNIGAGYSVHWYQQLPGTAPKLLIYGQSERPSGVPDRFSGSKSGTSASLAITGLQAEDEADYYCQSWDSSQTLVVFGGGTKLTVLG | = | 25 |
| Antibody 6 (antibody, human IgG1, lambda, V domains shown, germlined clone of NOV0798 (HCDR2-matured NOV0442_VL[Y49,G50,N51Q]); human IgG1; lead antibody; also called NOV0954; NOV954) VH: QVQLVESGGGLVKPGGSLRLSCAASGFTFSSYVVHWVRQAPGKGLEWVGRTRHSDMGYATSYAAPVKGRFTISRDDSKNTLYLQMNSLKTEDTAVYYCARVERSKSGFDNWGQGTLVTVSS VL: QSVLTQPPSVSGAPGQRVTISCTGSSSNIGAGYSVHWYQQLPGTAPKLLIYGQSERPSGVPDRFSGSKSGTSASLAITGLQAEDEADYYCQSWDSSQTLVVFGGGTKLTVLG | = | 25 |
